- test_system: Adrenergic receptor alpha-1 (Rattus norvegicus, UniProt P15823+P23944+P43140)
- Sequence (P15823 whole entry): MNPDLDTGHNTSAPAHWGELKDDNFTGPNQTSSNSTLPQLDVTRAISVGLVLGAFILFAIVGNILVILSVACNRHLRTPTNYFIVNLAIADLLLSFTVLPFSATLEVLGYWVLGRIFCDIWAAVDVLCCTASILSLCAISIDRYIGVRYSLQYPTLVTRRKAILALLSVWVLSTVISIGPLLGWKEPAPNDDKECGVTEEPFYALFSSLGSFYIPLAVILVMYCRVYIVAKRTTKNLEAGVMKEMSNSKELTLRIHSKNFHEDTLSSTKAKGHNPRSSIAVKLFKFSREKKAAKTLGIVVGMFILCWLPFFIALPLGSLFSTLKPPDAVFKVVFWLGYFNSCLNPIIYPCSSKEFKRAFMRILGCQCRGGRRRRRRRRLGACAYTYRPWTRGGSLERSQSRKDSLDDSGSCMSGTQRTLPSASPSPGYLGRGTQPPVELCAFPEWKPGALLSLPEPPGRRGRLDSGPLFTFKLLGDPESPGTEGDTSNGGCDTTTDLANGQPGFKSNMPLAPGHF
- Sequence (P23944 whole entry): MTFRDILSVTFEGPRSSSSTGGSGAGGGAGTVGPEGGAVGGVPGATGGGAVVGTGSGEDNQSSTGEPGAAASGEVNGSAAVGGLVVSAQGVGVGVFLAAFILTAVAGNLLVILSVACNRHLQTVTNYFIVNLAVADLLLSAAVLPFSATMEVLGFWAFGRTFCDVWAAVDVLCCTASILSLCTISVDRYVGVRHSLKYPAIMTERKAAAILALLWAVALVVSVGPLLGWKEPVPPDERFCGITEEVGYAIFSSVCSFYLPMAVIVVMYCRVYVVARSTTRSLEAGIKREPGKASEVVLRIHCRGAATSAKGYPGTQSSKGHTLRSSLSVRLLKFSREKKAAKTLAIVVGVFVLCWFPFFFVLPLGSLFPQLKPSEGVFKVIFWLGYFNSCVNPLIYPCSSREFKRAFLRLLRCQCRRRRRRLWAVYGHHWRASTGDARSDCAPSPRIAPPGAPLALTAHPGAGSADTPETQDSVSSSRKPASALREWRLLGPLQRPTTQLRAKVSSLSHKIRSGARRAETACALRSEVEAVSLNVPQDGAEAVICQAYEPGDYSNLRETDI
- Sequence (P43140 whole entry): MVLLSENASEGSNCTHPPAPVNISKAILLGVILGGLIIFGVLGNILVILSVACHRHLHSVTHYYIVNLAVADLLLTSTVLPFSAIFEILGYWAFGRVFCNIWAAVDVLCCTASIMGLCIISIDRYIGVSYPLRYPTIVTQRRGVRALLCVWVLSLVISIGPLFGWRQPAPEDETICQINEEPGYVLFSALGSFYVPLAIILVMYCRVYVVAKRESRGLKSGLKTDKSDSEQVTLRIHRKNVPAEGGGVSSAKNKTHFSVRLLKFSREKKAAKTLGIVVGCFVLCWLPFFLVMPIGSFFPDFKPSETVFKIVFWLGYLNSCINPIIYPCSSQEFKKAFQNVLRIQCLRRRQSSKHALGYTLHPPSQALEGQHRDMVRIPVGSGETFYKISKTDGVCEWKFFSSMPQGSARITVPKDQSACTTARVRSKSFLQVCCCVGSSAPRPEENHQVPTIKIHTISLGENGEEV
- assay_protocol: Displacement of [3H]prazosin from Alpha-1 adrenergic receptor of rat cortex membranes
- Format: cell membranes, Membrane
property_label: Ki (nM)

# structure_smiles_string, observed_measurement
measured = [
    ("CCc1cc2c(=O)n(N)c(SCCCN3CCN(c4ccccc4[N+](=O)[O-])CC3)nc2s1", 194.8),
    ("Cc1sc2nc(SCCCN3CCN(c4ncccn4)CC3)n(N)c(=O)c2c1C", 434),
    ("Nn1c(SCCCN2CCN(c3ncccn3)CC2)nc2sccc2c1=O", 366.31),
    ("CCc1cc2c(=O)n(N)c(SCCCN3CCN(c4ncccn4)CC3)nc2s1", 1946),
    ("COc1ccccc1N1CCN(CCCSc2nc3sc(C)c(C)c3c(=O)n2N)CC1", 6.26),
]

a = CCOc1ccccc1-c1nnc(SCCCN2CCN(c3ccccc3[N+](=O)[O-])CC2)s1
b = Cc1sc2nc(SCCCN3CCN(c4ccccc4[N+](=O)[O-])CC3)n(N)c(=O)c2c1C
c = Nn1c(SCCCN2CCN(c3ccccc3[N+](=O)[O-])CC2)nc2sccc2c1=O
d = COc1ccccc1N1CCN(CCCSc2nc3sc4c(c3c(=O)n2N)CCC4)CC1
Problem: // ascending sort on recorded Ki List the labels, following the order given in the request.
Result: d, c, b, a

----------
- test_system: UniProtKB P19327
- Sequence (P19327 whole entry): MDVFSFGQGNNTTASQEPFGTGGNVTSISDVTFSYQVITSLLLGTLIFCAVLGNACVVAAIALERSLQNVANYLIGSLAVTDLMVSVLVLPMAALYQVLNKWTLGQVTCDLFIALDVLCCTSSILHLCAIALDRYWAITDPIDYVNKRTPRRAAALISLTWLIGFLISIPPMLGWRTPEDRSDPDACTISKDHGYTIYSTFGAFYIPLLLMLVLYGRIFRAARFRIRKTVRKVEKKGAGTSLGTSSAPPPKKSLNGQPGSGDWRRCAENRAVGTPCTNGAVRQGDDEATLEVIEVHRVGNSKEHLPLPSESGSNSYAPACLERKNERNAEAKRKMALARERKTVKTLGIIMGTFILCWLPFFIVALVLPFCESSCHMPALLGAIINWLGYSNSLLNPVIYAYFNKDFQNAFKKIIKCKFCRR
pKi: −log10 of the molar value.
property_label: pKi

# structure_smiles_string, pKi
measured = [
    ("CCOc1ccccc1-c1nnc(SCCCN2CCN(c3ccccc3OC)CC2)s1", 8.16),
    ("Nn1c(SCCCN2CCN(c3ccccc3[N+](=O)[O-])CC2)nc2sccc2c1=O", 8.52),
]

a = Cc1sc2nc(SCCCN3CCN(c4ncccn4)CC3)n(N)c(=O)c2c1C
b = CCc1cc2c(=O)n(N)c(SCCCN3CCN(c4ncccn4)CC3)nc2s1
c = COc1ccccc1N1CCN(CCCSc2nc3sc4c(c3c(=O)n2N)CCC4)CC1
d = CCOc1ccccc1-c1nnc(SCCCN2CCN(c3ccccc3[N+](=O)[O-])CC2)s1
Problem: Write the entries in order, lowest recorded pKi first. Return value: ordered labels per request.
Result: d, b, a, c

----------
- test_system: Serotonin 1a (5-HT1a) receptor/Adrenergic receptor alpha-1 (Rattus norvegicus) (UniProt P15823+P23944+P43140+P19327)
- assay_protocol: Selectivity for 5-HT1A serotonin over alpha-1-adrenergic receptors
- Assay type: protein assay
property_label: Selectivity

P = COc1ccccc1N1CCN(CCCSc2nc(N)c3c(C)c(C)sc3n2)CC1
Q = CCc1cc2c(=O)n(N)c(SCCCN3CCN(c4ccccc4OC)CC3)nc2s1
R = CCCc1cc2c(=O)n(N)c(SCCCN3CCN(c4ccccc4OC)CC3)nc2s1
Problem: Ranking by Selectivity (descending) is requested for the entries above. Response format: the labels, sorted as the prompt asks.
Result: Q, R, P

----------
- test_system: Adrenergic receptor alpha-1 (Rattus norvegicus, UniProt P15823+P23944+P43140)
- assay_protocol: Displacement of [3H]prazosin from Alpha-1 adrenergic receptor of rat cortex membranes
- Format: cell membranes, Membrane
property_label: Ki (nM)

# structure_smiles_string, observed_measurement
records = [
    ("CCc1cc2c(=O)n(N)c(SCCCN3CCN(c4ccccc4OC)CC3)nc2s1", 21.96),
    ("COc1ccccc1N1CCN(CCCSc2nc3sccc3c(=O)n2N)CC1", 2.48),
    ("CCCc1cc2c(=O)n(N)c(SCCCN3CCN(c4ccccc4OC)CC3)nc2s1", 19.65),
]

1 = CCOc1ccccc1-c1nnc(SCCCN2CCN(c3ccccc3OC)CC2)s1
2 = COc1ccccc1N1CCN(CCCSc2nc(N)c3c(C)c(C)sc3n2)CC1
Problem: Of 1 versus 2 , which is the one with smaller reported Ki? Mark your answer with the label of the selected entry.
Result: 2
(2: 10.8 nM, 1: 31.5 nM)

----------
- test_system: Serotonin 1a (5-HT1a) receptor/Adrenergic receptor alpha-1 (Rattus norvegicus) (UniProt P15823+P23944+P43140+P19327)
- assay_protocol: Selectivity for 5-HT1A serotonin over alpha-1-adrenergic receptors
- Assay type: protein assay
property_label: Selectivity

Some solved cases for reference:
# structure_smiles_string, property_label, observed_measurement
records = [
    ("CCc1cc2c(=O)n(N)c(SCCCN3CCN(c4ncccn4)CC3)nc2s1", "Selectivity", 207),
    ("Cc1sc2nc(SCCCN3CCN(c4ncccn4)CC3)n(N)c(=O)c2c1C", "Selectivity", 117),
    ("CCc1cc2c(=O)n(N)c(SCCCN3CCN(c4ccccc4[N+](=O)[O-])CC3)nc2s1", "Selectivity", 20),
    ("COc1ccccc1N1CCN(CCCSc2nc3sc(C)c(C)c3c(=O)n2N)CC1", "Selectivity", 39),
    ("CCOc1ccccc1-c1nnc(SCCCN2CCN(c3ccccc3OC)CC2)s1", "Selectivity", 4.6),
    ("Cc1sc2nc(SCCCN3CCN(c4ccccc4[N+](=O)[O-])CC3)n(N)c(=O)c2c1C", "Selectivity", 53),
]

I = Nn1c(SCCCN2CCN(c3ncccn3)CC2)nc2sccc2c1=O
II = CCOc1ccccc1-c1nnc(SCCCN2CCN(c3ccccc3[N+](=O)[O-])CC2)s1
Problem: Quick one: lower Selectivity, I or II ? Record your answer as the label of the chosen record.
Result: II
(II: 3, I: 73)

1 = Nn1c(SCCCN2CCN(c3ccccc3[N+](=O)[O-])CC2)nc2sccc2c1=O
2 = COc1ccccc1N1CCN(CCCSc2nc3sccc3c(=O)n2N)CC1
Problem: Rank 1 against 2 by their Selectivity values and give the higher one. Answer with the label corresponding to your selection.
Result: 1
